targetOfAssay: Mushroom tyrosinase (EC 1.14.18.1)
protocolDetails: Tyrosinase assay (dopachrome formation at 475 nm)
studyConditions: L-DOPA or L-tyrosine as substrate, pH 6.8, 30 °C, mean ± standard deviation from triplicate experiments, read-out: Tyrosinase Inhibitory Activity IC50
pIC50: −log10 of the molar value.
Below, each entry is listed with its recorded pIC50.
metricName: pIC50

[[record]]
compound = "Cc1c(C)c2c(c(C)c1O[C@@H]1O[C@H](CO)[C@H](O)[C@H](O)[C@H]1O)CC[C@@](C)(CCC[C@H](C)CCC[C@H](C)CCCC(C)C)O2 [Compound 7, α-tocopherol 6-β-galactoside]"
targetofassay = "Mushroom tyrosinase (EC 1.14.18.1)"
metricname = "pIC50"
experimentalvalue = 4.27

[[record]]
compound = "COc1ccc(C2CC(=O)c3c(O)cc(OC4OC(COC5OC(CO)C(O)C(O)C5O)C(O)C(O)C4O)cc3O2)cc1O (stereo not drawn) [Compound 12, hesperetin 7-β-gentiobioside]"
targetofassay = "Mushroom tyrosinase (EC 1.14.18.1)"
metricname = "pIC50"
experimentalvalue = 3.86

[[record]]
compound = "O=c1c(-c2ccc(O[C@@H]3O[C@H](CO)[C@H](O)[C@H](O)[C@H]3O)cc2)coc2cc(O)ccc12 [Compound 4, daidzein 4′-β-galactoside]"
targetofassay = "Mushroom tyrosinase (EC 1.14.18.1)"
metricname = "pIC50"
experimentalvalue = 3.90

